B1: glmS ribozyme (parent)
chain: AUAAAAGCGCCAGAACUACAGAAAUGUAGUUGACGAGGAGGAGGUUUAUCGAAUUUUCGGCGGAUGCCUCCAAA

# Variants of: B1
# experiment: self-cleavage kobs at 40 uM GlcN6P; higher = faster cleavage; RNA array
# reported conditions: with glucosamine-6-phosphate
Variants at the floor of the assay were thinned out.

# variant description, self-cleavage kobs at 40 uM GlcN6P
measured = [
    ("G32A U57G", "< 1e-05 s⁻¹"),
    ("A12C U46G", "8.74e-05 s⁻¹"),
    ("A12G G41U A52G U54A", "< 1e-05 s⁻¹"),
    ("U31A C71A", "8.13e-05 s⁻¹"),
    ("C16A", "6.14e-05 s⁻¹"),
    ("C11A G59A G60A A64U", "< 1e-05 s⁻¹"),
    ("C16G G35A", "< 1e-05 s⁻¹"),
    ("G7U C10G A15C G37C", "< 1e-05 s⁻¹"),
    ("G40A U57A", "< 1e-05 s⁻¹"),
    ("A39G U65G C67G", "0.000107 s⁻¹"),
    ("G43C C68A", "< 1e-05 s⁻¹"),
    ("G40C U54G", "0.000126 s⁻¹"),
    ("A33G U65A C70G", "< 1e-05 s⁻¹"),
    ("A48G U55G", "< 1e-05 s⁻¹"),
    ("G44C U46G", "< 1e-05 s⁻¹"),
    ("G7A A14U C58A C68G", "0.000142 s⁻¹"),
    ("G7U U65C", "< 1e-05 s⁻¹"),
    ("A6U A15C A48U U69G", "< 1e-05 s⁻¹"),
    ("G13C G35A", "< 1e-05 s⁻¹"),
    ("G41C", "1.75e-05 s⁻¹"),
    ("G13C G62A", "< 1e-05 s⁻¹"),
    ("G29C C58G", "< 1e-05 s⁻¹"),
    ("A6G G40C", "< 1e-05 s⁻¹"),
    ("G9A A14G G32U U65A", "< 1e-05 s⁻¹"),
    ("A36G G44U U45C G51A G63C U69G C70G", "< 1e-05 s⁻¹"),
    ("G32U G38C U55A", "< 1e-05 s⁻¹"),
    ("C8A A14G C58U", "< 1e-05 s⁻¹"),
    ("U45G U56A", "7.59e-05 s⁻¹"),
    ("C8G G43C", "< 1e-05 s⁻¹"),
    ("A42G G44A A48G U57C C67A", "< 1e-05 s⁻¹"),
    ("U47C A48U C70U", "< 1e-05 s⁻¹"),
    ("G9U C11A", "< 1e-05 s⁻¹"),
    ("G29C G51U U55G", "< 1e-05 s⁻¹"),
    ("G40U G63C", "< 1e-05 s⁻¹"),
    ("C50A U57G C68U", "< 1e-05 s⁻¹"),
    ("U47G A53C", "0.000103 s⁻¹"),
    ("A14C A64U", "< 1e-05 s⁻¹"),
    ("C50A A53C", "< 1e-05 s⁻¹"),
    ("A33U U46A U47G", "< 1e-05 s⁻¹"),
    ("U31A G37C U69G", "< 1e-05 s⁻¹"),
    ("U55C G60U", "< 1e-05 s⁻¹"),
    ("A12U C16A U56A", "0.000111 s⁻¹"),
    ("C11U A14C A36G C50A", "< 1e-05 s⁻¹"),
    ("C67G C70G", "< 1e-05 s⁻¹"),
    ("G43A U69G", "< 1e-05 s⁻¹"),
    ("G40U C61U", "< 1e-05 s⁻¹"),
]

Where do the numbers come from? From the supplement of paper PMC7125110.
